System: AncSZ
Test: phosphorylation enrichment, bacterial display (enrichment ratio); higher = better substrate or ligand; peptides without Tyr show the background
Measured phosphorylation enrichment accompanies every entry in the list below.

>  <sequence.data>
DLTQDSEEWKR [ORC6_Y232_Y232S]

>  <phosphorylation enrichment>
1.02

$$$$
>  <sequence.data>
EVTLTYATGTK [NFKB1_Y485]

>  <phosphorylation enrichment>
0.805

$$$$
>  <sequence.data>
GQKTLYSFFSP [UNG_Y8]

>  <phosphorylation enrichment>
0.984

$$$$

----------
Tested on: Fer (mouse)
Assay: phosphorylation enrichment, bacterial display (enrichment ratio); higher = better substrate or ligand; peptides without Tyr show the background

>  <sequence.data>
VMTVDYSKTVV [SETD2_Y770]

>  <phosphorylation enrichment>
0.493

$$$$
>  <sequence.data>
CTTIHYNFMCT [TP53_Y234_N239T_YF]

>  <phosphorylation enrichment>
0.501

$$$$
>  <sequence.data>
ISGGGYRACPA [FGB_Y71_R74C]

>  <phosphorylation enrichment>
0.495

$$$$
>  <sequence.data>
CTTIHYNFMCS [TP53_Y234_N239S_YF]

>  <phosphorylation enrichment>
0.495

$$$$
>  <sequence.data>
TSPALYRLDLD [TRIL_Y352_A347T]

>  <phosphorylation enrichment>
0.499

$$$$

----------
Biological target: Grb2 SH2 (UniProt P62993)
Sequence (P62993 whole entry, looked up): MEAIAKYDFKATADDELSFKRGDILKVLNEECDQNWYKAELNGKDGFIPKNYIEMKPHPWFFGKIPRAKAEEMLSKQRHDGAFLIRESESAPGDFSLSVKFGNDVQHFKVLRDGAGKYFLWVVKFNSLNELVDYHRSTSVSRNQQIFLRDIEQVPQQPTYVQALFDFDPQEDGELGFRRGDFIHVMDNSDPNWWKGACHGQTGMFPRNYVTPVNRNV
Assay: SH2 binding enrichment of the phosphorylated peptide, bacterial display (enrichment ratio); higher = better substrate or ligand; peptides without Tyr show the background
The label depends only on SH2 binding enrichment: yes (1) if it is at least 1, no (0) if it is smaller.

>  <sequence.data>
VIVRMYDYHVL [RPF2_Y109_G106V]

>  <qualitative.label>
yes (1)

$$$$
>  <sequence.data>
QRIFQYIQSRF [DYRK1B_Y273_YF]

>  <qualitative.label>
yes (1)

$$$$
>  <sequence.data>
KKCTTYIDCDL [ASPA_Y64_R63T]

>  <qualitative.label>
no (0)

$$$$
>  <sequence.data>
GGKFSYLKVGH [GRM3_Y480_YF]

>  <qualitative.label>
no (0)

$$$$
>  <sequence.data>
VNCHQYDGLVE [ATP2A2_Y407]

>  <qualitative.label>
yes (1)

$$$$
>  <sequence.data>
DLLNSYIENEG [HSPA4L_Y600]

>  <qualitative.label>
yes (1)

$$$$
>  <sequence.data>
FADIAYNFRHG [PAH_Y166_YF]

>  <qualitative.label>
no (0)

$$$$
>  <sequence.data>
TFEFRYLEDQD [CNOT3_Y746_R750Q_YF]

>  <qualitative.label>
no (0)

$$$$

----------
Tested on: AncSZ
Assay: phosphorylation enrichment, bacterial display (enrichment ratio); higher = better substrate or ligand; peptides without Tyr show the background
Measured phosphorylation enrichment of individual entries

>  <sequence.data>
FADIAYNFRHG [PAH_Y166_YF]

>  <phosphorylation enrichment>
0.67

$$$$
>  <sequence.data>
FRKNIYNVKST [SYNE2_Y575_YF]

>  <phosphorylation enrichment>
0.469

$$$$
>  <sequence.data>
LRLFSYSTTIR [CYP7B1_Y365_S363F]

>  <phosphorylation enrichment>
0.815

$$$$
>  <sequence.data>
SRIWVYNHFRW [BRCA2_Y2621_YF]

>  <phosphorylation enrichment>
1.15

$$$$
>  <sequence.data>
EFGEVYKGMLK [EPHA2_Y628]

>  <phosphorylation enrichment>
0.503

$$$$
>  <sequence.data>
PVQAAYQNVVA [HBB_Y131_K133N]

>  <phosphorylation enrichment>
0.931

$$$$

----------
Biological target: Grb2 SH2 (UniProt P62993)
Assay: SH2 binding enrichment of the phosphorylated peptide, bacterial display (enrichment ratio); higher = better substrate or ligand; peptides without Tyr show the background
readout: SH2 binding enrichment

>  <sequence.data>
SEKIVYGHVDD [ACO2_Y71_L74V]

>  <value.reported>
0.903

$$$$
>  <sequence.data>
YYLGKYLQEVL [KLB_Y910]

>  <value.reported>
0.877

$$$$
>  <sequence.data>
EKIANYKEGTF [CLRN1_Y171_YF]

>  <value.reported>
0.91

$$$$

----------
Biological target: Fyn (UniProt P06241)
Sequence (P06241 whole entry, looked up): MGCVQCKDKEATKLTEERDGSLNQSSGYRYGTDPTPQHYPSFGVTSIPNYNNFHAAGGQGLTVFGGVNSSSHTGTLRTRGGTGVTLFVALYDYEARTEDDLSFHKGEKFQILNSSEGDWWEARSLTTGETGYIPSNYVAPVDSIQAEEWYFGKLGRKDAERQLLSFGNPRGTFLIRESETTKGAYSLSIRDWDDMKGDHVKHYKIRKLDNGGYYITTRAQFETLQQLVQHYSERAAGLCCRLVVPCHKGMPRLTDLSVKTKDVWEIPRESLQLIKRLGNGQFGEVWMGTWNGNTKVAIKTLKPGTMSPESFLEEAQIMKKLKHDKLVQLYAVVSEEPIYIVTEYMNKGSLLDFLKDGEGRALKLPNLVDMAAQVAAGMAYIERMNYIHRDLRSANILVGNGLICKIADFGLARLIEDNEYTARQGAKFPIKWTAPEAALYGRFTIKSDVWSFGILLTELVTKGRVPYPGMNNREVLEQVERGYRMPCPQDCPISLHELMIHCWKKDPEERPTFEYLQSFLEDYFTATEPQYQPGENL
Assay: phosphorylation enrichment, bacterial display (enrichment ratio); higher = better substrate or ligand; peptides without Tyr show the background

>  <sequence.data>
NHQFDYTFHWT [CSNK1A1_Y294_D297H_YF]

>  <phosphorylation enrichment>
0.507

$$$$
>  <sequence.data>
KEINDYVEKGT [SERPINA1_Y184_Q180E]

>  <phosphorylation enrichment>
0.514

$$$$
>  <sequence.data>
SENFTYIWWLN [PSG4_Y271_K267E_YF]

>  <phosphorylation enrichment>
0.513

$$$$
>  <sequence.data>
ADVLDYIKALN [HPRT1_Y81_L78V]

>  <phosphorylation enrichment>
0.507

$$$$
>  <sequence.data>
CTTIHYNFMCS [TP53_Y234_N239S_YF]

>  <phosphorylation enrichment>
0.502

$$$$
>  <sequence.data>
CHSDDYVHISL [TSC1_Y406]

>  <phosphorylation enrichment>
0.502

$$$$

----------
Biological target: c-Src SH2
Assay: SH2 binding enrichment of the phosphorylated peptide, bacterial display (enrichment ratio); higher = better substrate or ligand; peptides without Tyr show the background
readout: SH2 binding enrichment

>  <sequence.data>
SVVVCYEPPEV [TP53_Y220_P219C]

>  <value.reported>
0.584

$$$$
>  <sequence.data>
KLQKYYRKNPD [EHHADH_Y683_Q685K]

>  <value.reported>
0.597

$$$$
>  <sequence.data>
VFFFSYLLKNH [PTEN_Y180_YF]

>  <value.reported>
0.616

$$$$

----------
Target: FGFR1 (UniProt P11362)
Sequence (P11362 whole entry, looked up): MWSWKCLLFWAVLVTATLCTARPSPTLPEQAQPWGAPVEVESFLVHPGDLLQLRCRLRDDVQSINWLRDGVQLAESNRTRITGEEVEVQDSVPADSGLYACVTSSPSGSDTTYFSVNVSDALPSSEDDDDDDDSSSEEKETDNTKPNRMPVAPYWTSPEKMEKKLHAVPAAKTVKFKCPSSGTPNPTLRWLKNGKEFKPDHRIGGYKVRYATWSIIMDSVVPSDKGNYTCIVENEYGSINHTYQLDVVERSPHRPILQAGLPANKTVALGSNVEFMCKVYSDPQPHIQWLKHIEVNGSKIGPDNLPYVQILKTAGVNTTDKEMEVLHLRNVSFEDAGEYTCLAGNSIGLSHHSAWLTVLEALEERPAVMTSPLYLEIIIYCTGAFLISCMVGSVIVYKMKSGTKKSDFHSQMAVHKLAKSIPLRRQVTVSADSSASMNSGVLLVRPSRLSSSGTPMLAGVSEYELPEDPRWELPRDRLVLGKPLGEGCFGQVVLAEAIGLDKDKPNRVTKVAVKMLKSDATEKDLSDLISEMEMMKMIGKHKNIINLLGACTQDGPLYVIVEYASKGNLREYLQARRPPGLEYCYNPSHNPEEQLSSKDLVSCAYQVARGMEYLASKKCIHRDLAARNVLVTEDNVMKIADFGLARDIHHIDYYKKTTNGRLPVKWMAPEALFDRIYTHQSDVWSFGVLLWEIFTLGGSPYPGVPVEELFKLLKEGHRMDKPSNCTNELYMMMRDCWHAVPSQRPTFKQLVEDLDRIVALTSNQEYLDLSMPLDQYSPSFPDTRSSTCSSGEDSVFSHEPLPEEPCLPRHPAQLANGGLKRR
Assay: phosphorylation enrichment, bacterial display (enrichment ratio); higher = better substrate or ligand; peptides without Tyr show the background
Entries and their phosphorylation enrichment values follow.
readout: phosphorylation enrichment

>  <sequence.data>
LHRAHYDLRHT [AHSG_Y314]

>  <system>
FGFR1 (UniProt P11362)

>  <value.reported>
0.707

$$$$
>  <sequence.data>
CQAHGYFCQPI [STK11_Y156_L160P]

>  <system>
FGFR1 (UniProt P11362)

>  <value.reported>
0.646

$$$$
>  <sequence.data>
DEEEEYEYMNR [ERBB3_Y1197_D1194E]

>  <system>
FGFR1 (UniProt P11362)

>  <value.reported>
0.536

$$$$
>  <sequence.data>
VMTSKYRGGGG [HBA1_Y141_L137M]

>  <system>
FGFR1 (UniProt P11362)

>  <value.reported>
0.444

$$$$
>  <sequence.data>
QGFDTYFGFLL [ARSB_Y165_R160Q_YF]

>  <system>
FGFR1 (UniProt P11362)

>  <value.reported>
6.18

$$$$
>  <sequence.data>
HEKRAYICAHP [ACAD9_Y611_L606H]

>  <system>
FGFR1 (UniProt P11362)

>  <value.reported>
0.543

$$$$
>  <sequence.data>
NTGDFYDLFGG [PTPN11_Y63_YF]

>  <system>
FGFR1 (UniProt P11362)

>  <value.reported>
0.582

$$$$
>  <sequence.data>
LSIDRYHAIVY [NPSR1_Y147]

>  <system>
FGFR1 (UniProt P11362)

>  <value.reported>
3.36

$$$$
>  <sequence.data>
LIFTNYEVGKD [GSTP1_Y112_A114V_YF]

>  <system>
FGFR1 (UniProt P11362)

>  <value.reported>
1.17

$$$$
>  <sequence.data>
VMLENYSNLLS [ZFP69_Y109_V113L]

>  <system>
FGFR1 (UniProt P11362)

>  <value.reported>
0.559

$$$$
>  <sequence.data>
SEKISYVFMKR [SSX7_Y48_L43S_YF]

>  <system>
FGFR1 (UniProt P11362)

>  <value.reported>
0.52

$$$$
>  <sequence.data>
KYVVVYFREID [IL17RB_Y447]

>  <system>
FGFR1 (UniProt P11362)

>  <value.reported>
0.513

$$$$
>  <sequence.data>
TKFVAYIESQG [KDM4B_Y34_N29T_YF]

>  <system>
FGFR1 (UniProt P11362)

>  <value.reported>
0.51

$$$$
>  <sequence.data>
QNTGNYFDLFG [PTPN11_Y62_D61N_YF]

>  <system>
FGFR1 (UniProt P11362)

>  <value.reported>
21.2

$$$$
>  <sequence.data>
SSWPDYVRPLP [HSPB1_Y54_G53D]

>  <system>
FGFR1 (UniProt P11362)

>  <value.reported>
2.49

$$$$
>  <sequence.data>
RNESFYDTFST [EFCAB3_Y372]

>  <system>
FGFR1 (UniProt P11362)

>  <value.reported>
0.852

$$$$
>  <sequence.data>
ESMLRYEVYGG [STOX1_Y607]

>  <system>
FGFR1 (UniProt P11362)

>  <value.reported>
0.528

$$$$
>  <sequence.data>
NKKHHYRELPV [ERN2_Y860]

>  <system>
FGFR1 (UniProt P11362)

>  <value.reported>
0.826

$$$$
>  <sequence.data>
EDKSIYRRGAR [PRKCI_Y125]

>  <system>
FGFR1 (UniProt P11362)

>  <value.reported>
0.435

$$$$
>  <sequence.data>
NIRKKYYRAIL [CHD7_Y1217_Q1214R]

>  <system>
FGFR1 (UniProt P11362)

>  <value.reported>
0.501

$$$$
